assay-overview: pKa by potentiometric titration
Assay type: physicochemical
setup-conditions: aqueous solution, ionic strength 0.10, 25° C., read-out: pKa(1)
I'd be grateful if you could share measured pKa for these entries.
Just the number.

Reported pKa for c1ccc(CNCCCNCc2ccccn2)nc1 [2,3,2-pyridine] : what is it?
8.3

Consider next the molecule CN1CCCN(C)CCN(C)CCCN(C)CC1 [cyclam-methylated] in the same way.
9.7

---

assay-overview: pKa by potentiometric titration
Type: physicochemical
setup-conditions: aqueous solution, ionic strength 0.10, 25° C., read-out: pKa(4)
Protocol: PKa's were determined by standard potentiometric titration methods in aqueous solution with an ionic strength of 0.10 at 25° C. Values are reported as log K values of the equilibrium constant.
observed-property: pKa
I only need the number, thanks.

pKa lookup needed for "CN1CCCN(C)CCN(C)CCCN(C)CC1" , thanks.
2.6

---

assay-overview: Oil water partition coefficients (octanol/water, HPLC)
Assay type: physicochemical
setup-conditions: octanol/water (1:1); 1:1 octanol/water, shaken 12 hours, HPLC; read-out: Log Partition Coefficient Octanol:Water
observed-property: logP at 12 h
Give your answer as a number; write no unit.

Data request, read-out logP at 12 h, for "c1ccc(CNCCCNCc2ccccn2)nc1"
2.7

src = patent US20140057877A1
